System: Staphylococcus aureus ATCC 29213
experimentalDetails: MIC, broth microdilution, S. aureus ATCC 29213
Assay type: cell-based
experimentalParameters: ATCC 29213 / MSSA, Table 2, read-out: MIC S. aureus (MSSA) ATCC 29213 CLSI control strain
quantityMeasured: MIC

molecule=Cc1c(-c2cc(F)c(N)cc2F)ccc2c3oc(CN)nc3c(=O)n(C3CC3)c12 quantitymeasured=MIC result="< 1 µg/mL"
molecule=Cc1c(-c2cnc3[nH]nc(N)c3c2)ccc2c3ocnc3c(=O)n(C3CC3)c12 quantitymeasured=MIC result="< 1 µg/mL"
molecule=CC(=O)c1cc(F)c(-c2cc3c(cc2F)c2oc(C)nc2c(=O)n3C2CC2)cc1F quantitymeasured=MIC result="10 to 100 µg/mL"
molecule=O=c1c2ncoc2c2cc(F)c(-c3ccncc3Cl)cc2n1C1CC1 quantitymeasured=MIC result="1 to 10 µg/mL"
molecule=Cc1nc2c(=O)n(C3CC3)c3nc(-c4cc(F)c(N)cc4F)c(F)cc3c2o1 quantitymeasured=MIC result="10 to 100 µg/mL"

Exercise: Endpoint output: MIC of CN(C)C(=O)c1ccc(-c2cc3c(cc2F)c2ocnc2c(=O)n3C2CC2)cc1 . Value?
Key: 1 to 10 µg/mL

Exercise: Endpoint output: MIC of CCOC(=O)CNC(=O)c1ccc(-c2ccc3c4ocnc4c(=O)n(C4CC4)c3c2C)cc1 . Value?
Key: 1 to 10 µg/mL

Exercise: Endpoint output: MIC of Cc1c(-c2ccc3[nH]nnc3c2)ccc2c3ocnc3c(=O)n(C3CC3)c12 . Value?
Key: > 100 µg/mL

Reference for the values: patent US10385065B2
